The reported numbers originate from PubChem BioAssay (NCI).

Test system: NCI-H226 lung
EXPERIMENT_DESCRIPTION: NCI tumour cell line growth inhibition, 48 h
Documented TGI across a set of compounds

Ask: Query (compound): C=C(C(=O)O[C@H]1C/C(C)=C/CC/C(CO)=C/[C@H]2C(=O)OC(=C)[C@H]12)C(O)CO (some centres not stated) ; field requested: TGI
Reply: 37.7 µM

---

# TGI listing for each entry below
Tested on: U251 CNS
EXPERIMENT_DESCRIPTION: NCI tumour cell line growth inhibition, 48 h
// return numeric value only (unit: µM, not printed)

Ask: Look up TGI for this compound: CC[C@@]1(O)C(=O)OCc2c1cc1n(c2=O)Cc2c-1nc1ccc(O)cc1c2[Si](C)(C)C(C)(C)C
Reply: 0.0192

Ask: Please give the measured TGI for this compound: Oc1c(C(Nc2ccccc2Br)c2ccccc2)ccc2cccnc12 (configuration not stated)
Reply: 13.4

Ask: Request the reported TGI associated with O=C(CCN1CCCC1)Nc1ccc2c(NCc3ccccc3)c3ccccc3nc2c1
Reply: 1.73

Ask: For Cc1ccc2nc3ccccc3c(NCc3ccc(Cl)cc3)c2c1 , what is its reported TGI?
Reply: 11.6

Ask: Query (compound): CN(C)c1ccc(Nc2c3ccccc3nc3ccccc23)cc1 ; field requested: TGI
Reply: 2.7
